- MEASUREMENT TARGET: KRAS G12V (Homo sapiens, UniProt P01116+P62937, G12V)
- Sequence (P01116 1-169 isoform P01116-2 G12V limits assumed): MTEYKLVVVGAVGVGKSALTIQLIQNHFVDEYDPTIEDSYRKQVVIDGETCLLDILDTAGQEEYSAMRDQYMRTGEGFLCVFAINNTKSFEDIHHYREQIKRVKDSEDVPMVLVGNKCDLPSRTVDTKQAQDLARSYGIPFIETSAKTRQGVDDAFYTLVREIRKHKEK
- Sequence (P62937 whole entry): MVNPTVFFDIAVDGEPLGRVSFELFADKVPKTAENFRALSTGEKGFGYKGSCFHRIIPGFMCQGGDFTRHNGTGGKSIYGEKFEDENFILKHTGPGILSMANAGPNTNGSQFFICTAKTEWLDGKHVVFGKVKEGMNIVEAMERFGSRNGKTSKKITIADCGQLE
- TEST METHOD NOTES: Ras-Raf disruption/FRET/MOA assay, KRAS G12V
- Assay type: biochemical
- CONDITION CONTEXT: disruption of BRAF RBD binding, with Cyclophilin A; read-out: KRAS G12V FRET IC50
Exercise: state measured IC50 for each of the compounds provided.

Challenge: Query IC50 for `CCn1c(-c2cnccc2COC)c2c3cc(ccc31)-c1cc(O)cc(c1)C[C@H](NC(=O)[C@H](C(C)C)N(C)C(=O)[C@H]1CCN(C(=O)N3C[C@H]3C(=O)OC)C1)C(=O)N1CCC[C@H](N1)C(=O)OCC(C)(C)C2`
Response given: 100 to 1000 nM

Challenge: Find the measured IC50 of `CCn1c(-c2cccnc2[C@H](C)OC)c2c3cc(ccc31)-c1cc(cc(C(F)F)c1)C[C@H](NC(=O)[C@H](C1CCCC1)N1CC[C@]3(CCN(C(=O)[C@@H]4N[C@@H]4C4CC4)C3)C1=O)C(=O)N1CCC[C@H](N1)C(=O)OCC(C)(C)C2` and report it.
Response given: 1000 to 10000 nM

Challenge: Hello, please tell me recorded IC50 for this one: `CCn1c(-c2cccnc2[C@H](C)OC)c2c3cc(ccc31)-c1cc(O)cc(c1)C[C@H](NC(=O)[C@H](C(C)C)N1CC[C@@]3(CCCN(C(=O)[C@@H]4CN4)C3)C1=O)C(=O)N1CCC[C@H](N1)C(=O)OCC(C)(C)C2`
Response given: 100 to 1000 nM

Challenge: Please give measured IC50 of the following entry: `CCn1c(-c2cccnc2COC)c2c3cc(ccc31)-c1cc(O)cc(c1)C[C@H](NC(=O)[C@H](C(C)C)N(C)C(=O)CCNC1=NCCO1)C(=O)N1CCC[C@H](N1)C(=O)OCC(C)(C)C2`
Response given: > 10000 nM

Challenge: Quote IC50 reported for `CCn1c(-c2cnccc2COC)c2c3cc(ccc31)-c1cccc(c1)C[C@H](NC(=O)[C@H](C(C)C)N(C)C(=O)CCN=C=Nc1ccccc1COC)C(=O)N1CCC[C@H](N1)C(=O)OCC(C)(C)C2` please.
Response given: > 10000 nM

Challenge: Tell us which IC50 value is on record for `CCn1c(-c2cc(N3CCN(C)CC3)cnc2[C@H](C)OC)c2c3cc(ccc31)-c1csc(n1)C[C@H](NC(=O)[C@H](C1CCCC1)N1CC[C@]3(CCN(C(=O)[C@@H]4N[C@@H]4C4CC4)C3)C1=O)C(=O)N1CCC[C@H](N1)C(=O)OCC(C)(C)C2`
Response given: 100 to 1000 nM

###

- MEASUREMENT TARGET: NRAS G12C (Homo sapiens, UniProt P01111+P62937, G12C)
- Construct: His6
- Sequence (P01111 whole entry G12C): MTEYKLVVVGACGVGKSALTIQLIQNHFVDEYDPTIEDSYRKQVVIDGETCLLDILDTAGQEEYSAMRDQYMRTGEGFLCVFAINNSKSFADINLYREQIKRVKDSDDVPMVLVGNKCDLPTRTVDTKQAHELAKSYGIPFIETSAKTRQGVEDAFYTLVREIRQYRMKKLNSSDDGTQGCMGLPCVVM
- Sequence (P62937 whole entry): as the sequence (P62937 whole entry) above
- TEST METHOD NOTES: Ras-Raf disruption/FRET/MOA assay, NRAS G12C
- Assay type: biochemical
- CONDITION CONTEXT: NRAS G12C; read-out: NRAS G12C FRET data IC50
pIC50: −log10 of the molar value.
TEST READOUT: pIC50

Challenge: State its pIC50: CCn1c(-c2cnccc2COC)c2c3cc(ccc31)-c1cc(O)cc(c1)C[C@H](NC(=O)[C@H](C(C)C)N(C)C(=O)CN(C)C(=O)[C@@H]1CN1S(C)(=O)=O)C(=O)N1CCC[C@H](N1)C(=O)OCC(C)(C)C2 (some centres unmarked) [Compound 37]
Response given: 7.00 to 8.00

Challenge: Using the record for CCn1c(-c2cnccc2COC)c2c3cc(ccc31)-c1cc(O)cc(c1)C[C@H](NC(=O)[C@H](C(C)C)N(C)C(=O)CN(C)C(=O)[C@H]1CN1C(=O)OC)C(=O)N1CCC[C@H](N1)C(=O)OCC(C)(C)C2 [Example 38] , state its measured pIC50.
Response given: 7.00 to 8.00

Challenge: Return pIC50 for the following compound: CCn1c(-c2cccnc2[C@H](C)OC)c2c3cc(ccc31)-c1cc(CF)cc(c1)C[C@H](NC(=O)[C@H](C1CCCC1)N1CC[C@]3(CCN(C(=O)[C@@H]4N[C@@H]4C4CC4)C3)C1=O)C(=O)N1CCC[C@H](N1)C(=O)OCC(C)(C)C2 [Compound 321]
Response given: 6.00 to 7.00

Challenge: Give the reported value of pIC50 for this record: CCn1c(-c2cnccc2COC)c2c3cc(ccc31)-c1cc(O)cc(c1)C[C@H](NC(=O)[C@H](C(C)C)N(C)C(=O)CN(C)C(=O)[C@@H]1CN1C(C)=O)C(=O)N1CCC[C@H](N1)C(=O)OCC(C)(C)C2 [Compound 35]
Response given: 7.00 to 8.00

Challenge: Answer with reported pIC50 of CCn1c(-c2cnccc2COC)c2c3cc(ccc31)-c1cc(O)cc(c1)C[C@H](NC(=O)[C@H](C(C)C)N(C)C(=O)CN(C)C(=O)[C@H]1CN1S(C)(=O)=O)C(=O)N1CCC[C@H](N1)C(=O)OCC(C)(C)C2 (some centres unmarked) [Example 36]
Response given: 7.00 to 8.00

Challenge: // fetch pIC50 given entry CCn1c(-c2cccnc2[C@H](C)OC)c2c3cc(ccc31)-c1cc(O)cc(c1)C[C@H](NC(=O)[C@H](C(C)C)N(C)C(=O)N1CCN(C(=O)[C@@H]3CN3)CC1)C(=O)N1CCC[C@H](N1)C(=O)OCC(C)(C)C2 (atropisomer, axis not shown) [Compound 197]
Response given: 7.00 to 8.00

Challenge: Consider the compound CCn1c(-c2cccnc2[C@H](C)OC)c2c3cc(ccc31)-c1cc(O)cc(c1)C[C@H](NC(=O)[C@H](C(C)C)N1CO[C@@]3(CCN(C(=O)[C@H]4CN4)C3)C1=O)C(=O)N1CCC[C@H](N1)C(=O)OCC(C)(C)C2 [Compound 232] . State its measured pIC50.
Response given: 7.00 to 8.00

Challenge: Provide only the value of recorded pIC50 for CCn1c(-c2cnccc2COC)c2c3cc(ccc31)-c1cc(O)cc(c1)C[C@H](NC(=O)[C@H](C(C)C)N(C)C(=O)CN(C)C(=O)[C@@H]1CN1C(=O)OC)C(=O)N1CCC[C@H](N1)C(=O)OCC(C)(C)C2 [Compound 39]
Response given: 7.00 to 8.00

Challenge: Specify reported pIC50 for the compound shown: CCn1c(-c2cccnc2[C@H](C)OC)c2c3cc(ccc31)-c1csc(n1)C[C@H](NC(=O)[C@H](C(C)C)N(C)C(=O)N1CCC[C@@H](N(C)C(=O)[C@H]3CN3)C1)C(=O)N1CCC[C@H](N1)C(=O)OCC(C)(C)C2 (atropisomer, axis not shown) [Compound 289]
Response given: 7.00 to 8.00

Challenge: Specify measured pIC50 for CCn1c(-c2cnccc2COC)c2c3cc(ccc31)-c1cc(O)cc(c1)C[C@H](NC(=O)[C@H](C(C)C)N(C)C(=O)CN(C)C(=O)[C@@H]1[C@H](C)N1[S@@+]([O-])C(C)(C)C)C(=O)N1CCC[C@H](N1)C(=O)OCC(C)(C)C2 (some centres unmarked) [Compound 54] .
Response given: 7.00 to 8.00

Challenge: Retrieve pIC50 measured for CCn1c(-c2cccnc2[C@H](C)OC)c2c3cc(ccc31)-c1cc(O)cc(c1)C[C@H](NC(=O)[C@H](C1CCCC1)N1CC[C@@]3(CCN(C(=O)[C@@H]4N[C@@H]4C4CC4)C3)C1=O)C(=O)N1CCC[C@H](N1)C(=O)OCC(C)(C)C2 [Compound 215] and print it.
Response given: 7.00 to 8.00

Challenge: Read the entry CCn1c(-c2cccnc2[C@H](C)OC)c2c3cc(ccc31)-c1csc(n1)C[C@H](NC(=O)[C@H](C(C)C)N(C)C(=O)N1C3CCC1CN(C(=O)[C@@H]1CN1)C3)C(=O)N1CCC[C@H](N1)C(=O)OCC(C)(C)C2 [Compound 304] and write its reported pIC50.
Response given: 6.00 to 7.00

Challenge: Name the recorded pIC50 of the compound listed here: CCn1c(-c2cnccc2COC)c2c3cc(ccc31)-c1cc(O)cc(c1)C[C@H](NC(=O)[C@H](C(C)C)N(C)C(=O)CN(C)C(=O)[C@H]1[C@@H](C3CC3)N1[S@+]([O-])C(C)(C)C)C(=O)N1CCC[C@H](N1)C(=O)OCC(C)(C)C2 (some centres unmarked) [Compound 52]
Response given: 7.00 to 8.00

Challenge: Tell me its pIC50 given CCn1c(-c2cccnc2[C@H](C)OC)c2c3cc(ccc31)-c1cc(O)cc(c1)C[C@H](NC(=O)[C@H](C(C)C)N1CC[C@@]3(CCCN(C(=O)[C@H]4CN4)C3)C1=O)C(=O)N1CCC[C@H](N1)C(=O)OCC(C)(C)C2 [Compound 199] as the entry.
Response given: 6.00 to 7.00
